Target: MLL1-WDR5 PPI (Homo sapiens (Human), UniProt P61964)
Experiment: fluorescent probe assay of MLL1-WDR5 protein-protein interaction inhibition
Settings: fluorescent probe based on MLL1 peptide, incubation 0.5 hrs, read-out: MLL1-WDR5 PPI inhibiting activity IC50
Description: In the present disclosure, a fluorescent molecular probe was constructed based on a MLL1 peptide fragment binding to WDR5, for use as a method for study on an aniline compound interfering with WDR5 protein-protein interaction, to determine an inhibition rate of the aniline compound at various concentrations, and then compute the IC50 value. […]
Quantity Name: IC50 (nM)

Look over these answered cases.
CN1CCN(c2ccc(-c3ccncc3)cc2Nc2ncnc(Cl)c2N)CC1 ... 560
CCCC(=O)Nc1ccc(-c2ccc(N3CCN(C)CC3)c(Nc3ncnc(Cl)c3N)c2)cc1 ... 261
CN1CCN(c2ccc(-c3ccc(NC(=O)CN)cc3)c(F)c2Nc2ncnc(Cl)c2N)CC1 ... 33
CN1CCN(c2ccc(-c3ccc(C(=O)NCCCN4CCOCC4)cc3)c(F)c2Nc2ncnc(Cl)c2N)CC1 ... 69
Cc1cc(N2CCN(C)CC2)c(Nc2ncnc(Cl)c2N)cc1-c1ccc(C(=O)NCCCN2CCOCC2)cc1 ... 465
CN(C)CCNC(=O)c1cn(-c2ccc(N3CCN(C)CC3)c(Nc3ncnc(Cl)c3N)c2)nn1 ... 1560
CN1CCN(c2cc(F)c(-c3ccc(C(=O)NCCN4CCOCC4)cc3)cc2Nc2ncnc(Cl)c2N)CC1 ... 74
CN1CCN(C(=O)c2cn(-c3ccc(N4CCN(C)CC4)c(Nc4ncnc(Cl)c4N)c3)nn2)CC1 ... 1250

P = CN1CCN(c2ccc(-c3ccc(NC(=O)C4CCOCC4)cc3)cc2Nc2ncnc(Cl)c2N)CC1
Q = CN1CCN(c2ccc(-c3ccc(C(=O)NCCCO)cc3)cc2Nc2ncnc(Cl)c2N)CC1
Problem: Form: Entry with minimum IC50 (choose one): P / Q # answer = label of selected item
Result: Q
(Q: 310 nM, P: 489 nM)

1 = CN1CCN(C(=O)c2ccc(-c3ccc(N4CCN(C)CC4)c(Nc4ncnc(Cl)c4N)c3)c(F)c2)CC1
2 = CN1CCN(c2ccc(-c3ccc(NC(=O)C4CCCCC4)cc3)cc2Nc2ncnc(Cl)c2N)CC1
3 = CN1CCN(c2ccc(-c3cncnc3)cc2Nc2ncnc(Cl)c2N)CC1
4 = CN1CCN(c2ccc(-c3ccoc3)cc2Nc2ncnc(Cl)c2N)CC1
5 = CC(C)C(N)C(=O)Nc1ccc(-c2ccc(N3CCN(C)CC3)c(Nc3ncnc(Cl)c3N)c2F)cc1 (centres unmarked)
Problem: Endpoint returns the given molecules ordered by ascending IC50. Output spec: a listing of the labels in the requested order.
Result: 5, 2, 1, 3, 4
(5: 34 nM, 2: 372 nM, 1: 652 nM, 3: 5710 nM, 4: 11400 nM)

----------
biological target: MLL1-WDR5 PPI (Homo sapiens (Human)); assay: fluorescent probe assay of MLL1-WDR5 protein-protein interaction inhibition; settings: fluorescent probe based on MLL1 peptide, incubation 0.5 hrs, read-out: MLL1-WDR5 PPI inhibiting activity IC50
pIC50: −log10 of the molar value.
Quantity Name: pIC50

a = COc1ccc(-c2ccc(N3CCN(C)CC3)c(Nc3ncnc(Cl)c3N)c2)cc1
b = CN1CCN(c2cc(F)c(-c3ccc(C(=O)NCC4CCOCC4)cc3)cc2Nc2ncnc(Cl)c2N)CC1
c = CN1CCN(c2ccc(-c3ccc(NC(=O)CC4CCOCC4)cc3)c(F)c2Nc2ncnc(Cl)c2N)CC1
d = CN1CCN(c2ccc(-c3cccc(NC(=O)C4CCOCC4)c3)cc2Nc2ncnc(Cl)c2N)CC1
Problem: Lab note: rank above entries, pIC50 ascending. Output spec: a listing of the labels in the requested order.
Result: a, d, c, b

----------
target: MLL1-WDR5 PPI (Homo sapiens (Human), UniProt P61964); experiment: fluorescent probe assay of MLL1-WDR5 protein-protein interaction inhibition; settings: fluorescent probe based on MLL1 peptide, incubation 0.5 hrs, read-out: MLL1-WDR5 PPI inhibiting activity IC50
pIC50: −log10 of the molar value.
Quantity Name: pIC50

Look over these answered cases.
CN1CCN(c2cc(F)c(-c3ccc(C(=O)N4CCC(O)CC4)cc3)cc2Nc2ncnc(Cl)c2N)CC1 ... 7.48
CN1CCC(C(=O)Nc2ccc(-c3ccc(N4CCN(C)CC4)c(Nc4ncnc(Cl)c4N)c3F)cc2)CC1 ... 6.98
CN1CCN(c2ccc(-c3ccc(C(=O)N(C)C)cc3)cc2Nc2ncnc(Cl)c2N)CC1 ... 6.44

A = CN1CCN(c2ccc(-c3ccc(N)cc3)cc2Nc2ncnc(Cl)c2N)CC1
B = CCN1CCN(C(=O)c2ccc(-c3ccc(N4CCN(C)CC4)c(Nc4ncnc(Cl)c4N)c3F)cc2)CC1
C = CN1CCN(c2ccc(-n3cc(C(=O)NCCN4CCCC4)nn3)cc2Nc2ncnc(Cl)c2N)CC1
D = COC(=O)c1ccc(-c2cc(Nc3ncnc(Cl)c3N)c(N3CCN(C)CC3)cc2F)cc1
E = CN(C)CCCNC(=O)c1ccc(-c2ccc(N3CCN(C)CC3)c(Nc3ncnc(Cl)c3N)c2)cc1
Problem: Endpoint returns the given molecules ordered by ascending pIC50. Output spec: a listing of the labels in the requested order.
Result: C, A, E, B, D
(C: 5.79, A: 6.16, E: 6.57, B: 6.95, D: 7.40)

----------
test system: methylation level of H3K4; test: inhibition of the methylation level of H3K4 (methyltransferase activity); format: biochemical
Quantity Name: Whether the methylation level of H3K4 was inhibited

Look over these answered cases.
CN1CCN(c2ccc(-c3ccc(C(=O)NCCN4CCOCC4)cc3)c(F)c2Nc2ncnc(Cl)c2N)CC1 ... Yes
CN1CCN(c2ccc(-c3cccc(NC(=O)C4CCOCC4)c3)cc2Nc2ncnc(Cl)c2N)CC1 ... Yes
CN1CCN(c2ccc(-c3ccc(N)cc3)cc2Nc2ncnc(Cl)c2N)CC1 ... Yes
CN1CCN(c2ccc(-c3ccc(C(=O)NCCCN4CCOCC4)cc3)cc2Nc2ncnc(Cl)c2N)CC1 ... Yes
CN1CCC(C(=O)Nc2cccc(-c3ccc(N4CCN(C)CC4)c(Nc4ncnc(Cl)c4N)c3)c2)CC1 ... Yes

Problem: // lookup Whether the methylation level of H3K4 was inhibited for `COC(=O)c1cn(-c2ccc(N3CCN(C)CC3)c(Nc3ncnc(Cl)c3N)c2)nn1`
Result: Yes

Problem: Then what about the molecule `CN1CCC(C(=O)Nc2ccc(-c3ccc(N4CCN(C)CC4)c(Nc4ncnc(Cl)c4N)c3)cc2)CC1` ?
Result: Yes

Problem: Then what about the molecule `CN1CCN(C(=O)c2ccc(-c3ccc(N4CCN(C)CC4)c(Nc4ncnc(Cl)c4N)c3)c(F)c2)CC1` ?
Result: Yes

----------
biological target: MLL1-WDR5 PPI (Homo sapiens (Human)); test: fluorescent probe assay of MLL1-WDR5 protein-protein interaction inhibition; details: fluorescent probe based on MLL1 peptide, incubation 0.5 hrs, read-out: MLL1-WDR5 PPI inhibiting activity IC50
Quantity Name: IC50 (nM)

CN1CCN(c2ccc(-c3cccc(N)c3)cc2Nc2ncnc(Cl)c2N)CC1 ... 675
CN1CCN(c2ccc(-c3ccc(C(=O)NCCN4CCCC4)cc3)cc2Nc2ncnc(Cl)c2N)CC1 ... 370
CN1CCN(c2ccc(-n3cc(C(=O)N4CCOCC4)nn3)cc2Nc2ncnc(Cl)c2N)CC1 ... 240

A = CC(C)NC(=O)c1ccc(-c2ccc(N3CCN(C)CC3)c(Nc3ncnc(Cl)c3N)c2)cc1
B = Cc1c(-c2ccc(C(=O)N(C)C)cc2)ccc(N2CCN(C)CC2)c1Nc1ncnc(Cl)c1N
C = CN1CCC(C(=O)Nc2ccc(-c3ccc(N4CCN(C)CC4)c(Nc4ncnc(Cl)c4N)c3)cc2)CC1
D = CN1CCN(c2ccc([N+](=O)[O-])cc2Nc2ncnc(Cl)c2N)CC1
Problem: # sort list by recorded IC50, greatest to least Output spec: a listing of the labels in the requested order.
Result: D, B, A, C

A = CN1CCN(c2ccc(-c3ccc(C(=O)N4CCOCC4)cc3)cc2Nc2ncnc(Cl)c2N)CC1
B = CN1CCC(C(=O)Nc2cccc(-c3ccc(N4CCN(C)CC4)c(Nc4ncnc(Cl)c4N)c3)c2)CC1
Problem: Form: Entry with minimum IC50 (choose one): A / B # answer = label of selected item
Result: A

----------
target: MLL1-WDR5 PPI (Homo sapiens (Human), UniProt P61964); assay: fluorescent probe assay of MLL1-WDR5 protein-protein interaction inhibition; conditions: fluorescent probe based on MLL1 peptide, incubation 0.5 hrs, read-out: MLL1-WDR5 PPI inhibiting activity IC50
Quantity Name: IC50 (nM)

Look over these answered cases.
CN1CCN(C(=O)c2ccc(-c3ccc(N4CCN(C)CC4)c(Nc4ncnc(Cl)c4N)c3)cc2)CC1 ... 217
Cc1c(F)c(N)cc(C(=O)Nc2cc(-c3ccc(N)cc3)ccc2N2CCN(C)CC2)c1Cl [DDO-2084, reference compound] ... 338000
CN1CCN(c2ccc(-c3ccc(NC(=O)c4ccccc4)cc3)cc2Nc2ncnc(Cl)c2N)CC1 ... 5550

P = COC(=O)c1cn(-c2ccc(N3CCN(C)CC3)c(Nc3ncnc(Cl)c3N)c2)nn1
Q = CN1CCN(c2ccc(-c3ccc(C(=O)NCCN4CCOCC4)cc3)c(F)c2Nc2ncnc(Cl)c2N)CC1
R = CN1CCN(c2ccc(-c3ccc(NC(=O)C4CCOCC4)cc3)c(F)c2Nc2ncnc(Cl)c2N)CC1
Problem: Endpoint returns the given compounds ordered by ascending IC50. Output spec: a listing of the labels in the requested order.
Result: Q, R, P

I = CN1CCN(c2ccc(-n3cc(C(=O)NCCCN4CCOCC4)nn3)cc2Nc2ncnc(Cl)c2N)CC1
II = CN1CCN(c2cc(F)c(-c3ccc(C(=O)NCCCN4CCOCC4)cc3)cc2Nc2ncnc(Cl)c2N)CC1
Problem: Higher IC50 between I and II ? # answer = label of selected item
Result: I

Attribution: patent US12453731B2
